These entries and their values trace back to paper PMC6274398.

test system: NO production in RAW 264.7 mouse macrophages stimulated by lipopolysaccharide (LPS); assay: Inhibitory assay of NO production (Griess) in LPS-stimulated RAW264.7 cells; assay type: cell-based; details: Mus musculus; LPS-stimulated RAW264.7, 24 h; read-out: IC50 (inhibition of NO production)
pIC50: −log10 of the molar value.
Measured pIC50 by item

# compound, pIC50
rows = [
    ("CO[C@@H]1C=C2[C@@H]3CC(C)(C)CC[C@]3(C)CC[C@@]2(C)[C@]2(C)CC[C@H]3C(C)(C)C(=O)CC[C@]3(C)[C@@H]12", "< 4.52"),
    ("CNC(=N)NCCC[C@H](N)C(=O)O [L-NMMA, N^G-monomethyl-L-arginine acetate, reference compound]", 4.62),
    ("CC(=O)O[C@H]1CC[C@]2(C)[C@H]3CC[C@@]4(C)[C@@H]5[C@@H](C)[C@H](C)CC[C@]5(C)CC[C@]4(C)C3=CC(=O)[C@H]2C1(C)C", "< 4.52"),
]

Now consider the entry below.
In plain terms, CC(C)C1=CC(=O)C(C)CCC2(C)C(CCC3C4(C)CCC(=O)C(C)(C)C4CCC32C)C1=O (stereo not shown) has a documented pIC50 of < 4.52
